# Tested on: HEK293 Bcr-Abl E255K
# ASSAY INFO: Anticancer activity in HEK293 stably transfected with Bcr-Abl E255K
# Assay type: cell-based
# RUN CONDITIONS: stably transfected
Catalogue of IC50 values
Return type: number; implicit unit µM.

# COMPOUND, UNIT SPEC, IC50
rows = [
    ("O=C1[O][Pt]2([NH][C@@H]3CCCC[C@H]3[NH]2)[O]C1=O", "µM", 2.65),
]

Consider the record given below.
Notebook: N.N.[Cl][Pt][Cl] [Cisplatin] , IC50 read as 6.54

====

# TEST TARGET: FGR (Homo sapiens, UniProt P09769)
# Construct: purchased DiscoveRx KINOMEscan
# Sequence (P09769 whole entry): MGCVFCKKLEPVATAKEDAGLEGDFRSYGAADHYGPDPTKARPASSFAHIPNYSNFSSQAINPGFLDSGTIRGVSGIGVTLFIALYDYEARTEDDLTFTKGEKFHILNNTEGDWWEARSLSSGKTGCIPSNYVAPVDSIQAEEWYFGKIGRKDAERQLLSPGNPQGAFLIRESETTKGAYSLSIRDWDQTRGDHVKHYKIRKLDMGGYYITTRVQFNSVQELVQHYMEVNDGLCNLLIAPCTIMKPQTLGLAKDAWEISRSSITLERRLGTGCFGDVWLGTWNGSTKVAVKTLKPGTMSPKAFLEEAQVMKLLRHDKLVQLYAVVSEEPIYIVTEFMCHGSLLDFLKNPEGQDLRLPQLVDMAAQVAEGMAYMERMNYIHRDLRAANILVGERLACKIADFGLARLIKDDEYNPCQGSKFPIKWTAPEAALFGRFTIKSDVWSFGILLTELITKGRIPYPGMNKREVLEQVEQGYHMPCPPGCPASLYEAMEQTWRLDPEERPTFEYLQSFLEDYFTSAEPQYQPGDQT
# Assay type: binding
# RUN CONDITIONS: 10 μM
PROPERTY NAME: Percent control (%)
Return type: number; implicit unit %.

These recorded examples may help you get a feel for the data.
# MOLECULE, UNIT SPEC, Percent control
rows = [
    ("Cc1ccc(NC(=O)c2ccc(CN3CCN(C)CC3)cc2)cc1Nc1nccc(-c2cccnc2)[n+]1[Pt-2]1([Cl])[NH2+]C2CCCCC2[NH2+]1 (stereo not shown) [1b, oxaliplatin-imatinib]", "%", 80),
    ("Cc1ccc(NC(=O)c2ccc(CN3CCN(C)CC3)cc2)cc1Nc1nccc(-c2cccnc2)n1 [Imatinib, reference compound]", "%", 19.4),
    ("COc1cc2c(Nc3ccc(Br)cc3F)[n+]([Pt-2]3([Cl])[NH2+]C4CCCCC4[NH2+]3)cnc2cc1OCC1CCN(C)CC1 (stereo not shown) [3b, oxaliplatin-vandetanib]", "%", 33),
]

Consider the record given below.
Notebook: C#Cc1cccc(Nc2c3cc(OCCOC)c(OCCOC)cc3nc[n+]2[Pt@SP2-2]([NH3+])([NH3+])[Cl])c1 [2a, cisplatin-erlotinib] , Percent control read as 81

====

Catalogue of Percent control values
# TEST TARGET: IGF1R (Homo sapiens)
# Construct: purchased DiscoveRx KINOMEscan
# Sequence (P08069 31-1367): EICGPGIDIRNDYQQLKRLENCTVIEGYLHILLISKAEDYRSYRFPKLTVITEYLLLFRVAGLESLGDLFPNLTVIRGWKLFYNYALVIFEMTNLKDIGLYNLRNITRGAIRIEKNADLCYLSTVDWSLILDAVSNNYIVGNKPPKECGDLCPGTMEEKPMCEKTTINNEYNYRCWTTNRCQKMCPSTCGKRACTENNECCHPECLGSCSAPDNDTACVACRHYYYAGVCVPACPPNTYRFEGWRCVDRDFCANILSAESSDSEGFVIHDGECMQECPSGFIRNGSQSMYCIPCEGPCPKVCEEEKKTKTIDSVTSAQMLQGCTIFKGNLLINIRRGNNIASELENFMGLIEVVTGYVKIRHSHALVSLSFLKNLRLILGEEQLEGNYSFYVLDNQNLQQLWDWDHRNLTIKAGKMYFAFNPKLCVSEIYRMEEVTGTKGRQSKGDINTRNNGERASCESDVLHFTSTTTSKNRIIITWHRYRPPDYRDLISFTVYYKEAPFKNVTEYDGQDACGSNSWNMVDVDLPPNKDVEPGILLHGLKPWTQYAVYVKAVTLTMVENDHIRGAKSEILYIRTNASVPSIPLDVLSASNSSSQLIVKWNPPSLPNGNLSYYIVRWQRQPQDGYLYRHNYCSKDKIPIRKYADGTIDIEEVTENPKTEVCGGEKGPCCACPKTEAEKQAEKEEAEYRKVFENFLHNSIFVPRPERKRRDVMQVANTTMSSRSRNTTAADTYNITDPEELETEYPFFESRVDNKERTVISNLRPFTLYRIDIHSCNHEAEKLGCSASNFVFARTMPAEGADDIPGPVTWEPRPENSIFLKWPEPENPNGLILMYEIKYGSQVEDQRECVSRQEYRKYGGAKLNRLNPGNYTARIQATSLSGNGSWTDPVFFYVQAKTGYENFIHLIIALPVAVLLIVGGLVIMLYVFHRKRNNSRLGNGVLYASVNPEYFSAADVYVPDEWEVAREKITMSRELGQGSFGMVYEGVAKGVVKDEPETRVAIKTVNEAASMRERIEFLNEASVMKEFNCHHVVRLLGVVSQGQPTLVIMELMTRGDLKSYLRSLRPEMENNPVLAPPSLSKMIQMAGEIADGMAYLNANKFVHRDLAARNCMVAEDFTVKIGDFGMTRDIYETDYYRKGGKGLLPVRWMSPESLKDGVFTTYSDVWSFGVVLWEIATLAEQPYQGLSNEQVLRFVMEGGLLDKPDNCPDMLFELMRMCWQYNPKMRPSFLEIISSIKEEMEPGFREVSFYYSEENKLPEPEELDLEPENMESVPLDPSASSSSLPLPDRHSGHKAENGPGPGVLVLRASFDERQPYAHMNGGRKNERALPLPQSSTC
# Type: binding
# RUN CONDITIONS: IGF1R; 10 μM
Return type: number; implicit unit %.

These recorded examples may help you get a feel for the data.
# COMPOUND, UNIT SPEC, Percent control
measured = [
    ("COc1cc2c(Nc3ccc(Br)cc3F)[n+]([Pt-2]3([Cl])[NH2+]C4CCCCC4[NH2+]3)cnc2cc1OCC1CCN(C)CC1 (stereo not shown)", "%", 100),
    ("C#Cc1cccc(Nc2c3cc(OCCOC)c(OCCOC)cc3nc[n+]2[Pt@SP2-2]([NH3+])([NH3+])[Cl])c1 [2a, cisplatin-erlotinib]", "%", 86),
    ("Cc1ccc(NC(=O)c2ccc(CN3CCN(C)CC3)cc2)cc1Nc1nccc(-c2cccnc2)[n+]1[Pt-2]1([Cl])[NH2+]C2CCCCC2[NH2+]1 (stereo not shown)", "%", 100),
]

Notebook: Cc1ccc(NC(=O)c2ccc(CN3CCN(C)CC3)cc2)cc1Nc1nccc(-c2cccnc2)n1 [Imatinib, reference compound] , Percent control read as 100

====

# TEST TARGET: FAK (Homo sapiens, UniProt Q05397)
# Construct: purchased DiscoveRx KINOMEscan
# Sequence (Q05397 whole entry): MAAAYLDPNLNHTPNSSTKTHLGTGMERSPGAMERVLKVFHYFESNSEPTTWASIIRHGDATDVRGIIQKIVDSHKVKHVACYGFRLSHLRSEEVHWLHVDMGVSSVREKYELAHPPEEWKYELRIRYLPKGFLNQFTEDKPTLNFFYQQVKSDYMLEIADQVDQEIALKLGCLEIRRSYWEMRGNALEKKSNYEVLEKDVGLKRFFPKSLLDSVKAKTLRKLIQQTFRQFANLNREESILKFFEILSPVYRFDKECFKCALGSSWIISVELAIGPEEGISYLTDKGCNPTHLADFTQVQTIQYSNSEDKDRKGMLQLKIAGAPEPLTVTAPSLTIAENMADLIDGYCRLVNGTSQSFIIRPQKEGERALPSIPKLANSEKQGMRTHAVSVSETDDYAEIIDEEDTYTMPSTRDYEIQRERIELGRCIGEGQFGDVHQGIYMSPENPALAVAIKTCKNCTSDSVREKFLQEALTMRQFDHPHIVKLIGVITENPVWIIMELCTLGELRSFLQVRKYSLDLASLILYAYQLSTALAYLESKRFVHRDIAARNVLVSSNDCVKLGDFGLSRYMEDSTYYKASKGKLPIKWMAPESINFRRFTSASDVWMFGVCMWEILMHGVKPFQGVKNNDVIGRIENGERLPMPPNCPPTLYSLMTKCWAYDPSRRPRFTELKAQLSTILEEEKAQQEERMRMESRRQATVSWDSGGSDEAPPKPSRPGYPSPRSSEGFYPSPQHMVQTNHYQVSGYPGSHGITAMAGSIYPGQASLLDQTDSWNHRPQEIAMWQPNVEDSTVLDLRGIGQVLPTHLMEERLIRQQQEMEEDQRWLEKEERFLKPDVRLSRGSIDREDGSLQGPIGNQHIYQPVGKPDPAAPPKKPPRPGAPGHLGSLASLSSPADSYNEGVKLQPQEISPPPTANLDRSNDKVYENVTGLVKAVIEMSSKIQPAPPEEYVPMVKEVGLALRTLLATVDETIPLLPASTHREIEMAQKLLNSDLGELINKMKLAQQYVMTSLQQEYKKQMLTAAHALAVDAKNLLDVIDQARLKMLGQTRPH
# Type: binding
# RUN CONDITIONS: FAK; 10 μM
PROPERTY NAME: Percent control (%)
Return type: number; implicit unit %.

These recorded examples may help you get a feel for the data.
# COMPOUND, OBSERVED RESULT
measured = [
    ("C#Cc1cccc(Nc2c3cc(OCCOC)c(OCCOC)cc3nc[n+]2[Pt@SP2-2]([NH3+])([NH3+])[Cl])c1 [2a, cisplatin-erlotinib]", 94),
    ("Cc1ccc(NC(=O)c2ccc(CN3CCN(C)CC3)cc2)cc1Nc1nccc(-c2cccnc2)[n+]1[Pt-2]1([Cl])[NH2+]C2CCCCC2[NH2+]1 (stereo not shown) [1b, oxaliplatin-imatinib]", 90),
    ("COc1cc2c(Nc3ccc(Br)cc3F)[n+]([Pt-2]3([Cl])[NH2+]C4CCCCC4[NH2+]3)cnc2cc1OCC1CCN(C)CC1 (stereo not shown) [3b, oxaliplatin-vandetanib]", 86),
]

Consider the record given below.
Notebook: Cc1ccc(NC(=O)c2ccc(CN3CCN(C)CC3)cc2)cc1Nc1nccc(-c2cccnc2)n1 [Imatinib, reference compound] , Percent control read as 100

====

# Tested on: HEK293 Mock transfected
# ASSAY INFO: Anticancer activity in mock transfected HEK293
# Format: cell-based
# RUN CONDITIONS: Bcr-Abl negative
PROPERTY NAME: pIC50
Just the number, please; pIC50 means minus log10 of the concentration in mol/L.

These recorded examples may help you get a feel for the data.
# COMPOUND, pIC50
rows = [
    ("Cc1ccc(NC(=O)c2ccc(CN3CCN(C)CC3)cc2)cc1Nc1nccc(-c2cccnc2)[n+]1[Pt-2]1([Cl])[NH2+]C2CCCCC2[NH2+]1 (stereo not shown)", 4.98),
    ("O=C1[O][Pt]2([NH][C@@H]3CCCC[C@H]3[NH]2)[O]C1=O", 5.62),
    ("Cc1ccc(NC(=O)c2ccc(CN3CCN(C)CC3)cc2)cc1Nc1nccc(-c2cccnc2)[n+]1[Pt@SP3-2]([NH3+])([NH3+])[Cl] [1c, transplatin-imatinib]", 4.99),
]

Consider the record given below.
Entry N.N.[Cl][Pt][Cl] [Cisplatin] , HEK293 Mock transfected data, pIC50 value: 5.27

====

# System: HCC827
# ASSAY INFO: Anticancer activity (cytotoxicity) in NSCLC cell line
# Assay type: cell-based
# RUN CONDITIONS: EGFR ΔE746-A750 (sensitizing)
Catalogue of pIC50 values
Just the number, please; pIC50 means minus log10 of the concentration in mol/L.

# COMPOUND, OBSERVED RESULT
data = [
    ("N.N.[Cl][Pt][Cl] [Cisplatin]", 5.18),
]

Consider the record given below.
Notebook: O=C1[O][Pt]2([NH][C@@H]3CCCC[C@H]3[NH]2)[O]C1=O [Oxaliplatin] , pIC50 read as 5.44

====

# TEST TARGET: LYN (Homo sapiens)
# Sequence (P07948 whole entry): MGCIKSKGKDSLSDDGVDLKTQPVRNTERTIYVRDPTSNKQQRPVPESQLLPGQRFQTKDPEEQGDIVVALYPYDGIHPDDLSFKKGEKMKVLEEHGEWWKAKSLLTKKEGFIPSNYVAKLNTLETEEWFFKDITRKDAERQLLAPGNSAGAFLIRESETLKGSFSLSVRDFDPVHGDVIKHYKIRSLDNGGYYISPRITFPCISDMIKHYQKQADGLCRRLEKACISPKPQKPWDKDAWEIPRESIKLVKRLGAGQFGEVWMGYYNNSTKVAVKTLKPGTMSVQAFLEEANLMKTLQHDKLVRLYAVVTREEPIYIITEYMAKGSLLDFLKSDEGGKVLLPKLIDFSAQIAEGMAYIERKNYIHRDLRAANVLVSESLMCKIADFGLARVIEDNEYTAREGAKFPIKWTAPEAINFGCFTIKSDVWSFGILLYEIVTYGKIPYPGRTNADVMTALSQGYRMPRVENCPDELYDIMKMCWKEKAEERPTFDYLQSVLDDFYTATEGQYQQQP
# RUN CONDITIONS: 10 μM
Catalogue of Percent control values
Answer format: value, then unit.

These recorded examples may help you get a feel for the data.
# COMPOUND, TEST TARGET, PROPERTY NAME, OBSERVED RESULT
data = [
    ("C#Cc1cccc(Nc2c3cc(OCCOC)c(OCCOC)cc3nc[n+]2[Pt@SP2-2]([NH3+])([NH3+])[Cl])c1 [2a, cisplatin-erlotinib]", "LYN (Homo sapiens)", "Percent control", "69%"),
    ("Cc1ccc(NC(=O)c2ccc(CN3CCN(C)CC3)cc2)cc1Nc1nccc(-c2cccnc2)[n+]1[Pt-2]1([Cl])[NH2+]C2CCCCC2[NH2+]1 (stereo not shown)", "LYN (Homo sapiens)", "Percent control", "67%"),
]

Notebook: Cc1ccc(NC(=O)c2ccc(CN3CCN(C)CC3)cc2)cc1Nc1nccc(-c2cccnc2)n1 [Imatinib, reference compound] , Percent control read as 74%

Notebook: COc1cc2c(Nc3ccc(Br)cc3F)[n+]([Pt-2]3([Cl])[NH2+]C4CCCCC4[NH2+]3)cnc2cc1OCC1CCN(C)CC1 (stereo not shown) , Percent control read as 21%

====

# TEST TARGET: ZAP70 (Homo sapiens, UniProt P43403)
# Sequence (P43403 whole entry): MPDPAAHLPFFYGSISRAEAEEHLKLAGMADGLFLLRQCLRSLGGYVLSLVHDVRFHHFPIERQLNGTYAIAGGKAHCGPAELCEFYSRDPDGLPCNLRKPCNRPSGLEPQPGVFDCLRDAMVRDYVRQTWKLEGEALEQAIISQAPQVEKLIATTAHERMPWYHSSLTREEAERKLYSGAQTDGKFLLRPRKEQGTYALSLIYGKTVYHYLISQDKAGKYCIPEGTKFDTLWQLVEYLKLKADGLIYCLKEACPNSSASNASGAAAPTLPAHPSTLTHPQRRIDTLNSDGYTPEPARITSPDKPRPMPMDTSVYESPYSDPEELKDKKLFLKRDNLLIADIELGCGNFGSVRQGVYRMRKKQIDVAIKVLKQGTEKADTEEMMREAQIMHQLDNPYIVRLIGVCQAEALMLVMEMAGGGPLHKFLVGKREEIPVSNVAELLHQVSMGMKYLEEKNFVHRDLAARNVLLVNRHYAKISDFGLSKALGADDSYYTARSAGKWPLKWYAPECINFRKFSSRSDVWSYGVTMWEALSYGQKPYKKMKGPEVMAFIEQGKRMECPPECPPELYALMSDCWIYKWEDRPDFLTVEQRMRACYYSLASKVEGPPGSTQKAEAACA
# RUN CONDITIONS: 10 μM
PROPERTY NAME: Percent control (%)
Return type: number; implicit unit %.

These recorded examples may help you get a feel for the data.
# COMPOUND, UNIT SPEC, OBSERVED RESULT
data = [
    ("Cc1ccc(NC(=O)c2ccc(CN3CCN(C)CC3)cc2)cc1Nc1nccc(-c2cccnc2)[n+]1[Pt-2]1([Cl])[NH2+]C2CCCCC2[NH2+]1 (stereo not shown)", "%", 100),
    ("COc1cc2c(Nc3ccc(Br)cc3F)[n+]([Pt-2]3([Cl])[NH2+]C4CCCCC4[NH2+]3)cnc2cc1OCC1CCN(C)CC1 (stereo not shown)", "%", 99),
    ("C#Cc1cccc(Nc2c3cc(OCCOC)c(OCCOC)cc3nc[n+]2[Pt@SP2-2]([NH3+])([NH3+])[Cl])c1 [2a, cisplatin-erlotinib]", "%", 89),
]

Consider the record given below.
Notebook: Cc1ccc(NC(=O)c2ccc(CN3CCN(C)CC3)cc2)cc1Nc1nccc(-c2cccnc2)n1 [Imatinib, reference compound] , Percent control read as 100

====

# TEST TARGET: JAK3(JH1domain-catalytic) (Homo sapiens, UniProt P52333)
# Construct: JAK3(JH1domain-catalytic); purchased DiscoveRx KINOMEscan
# Sequence (P52333 813-1124 limits assumed): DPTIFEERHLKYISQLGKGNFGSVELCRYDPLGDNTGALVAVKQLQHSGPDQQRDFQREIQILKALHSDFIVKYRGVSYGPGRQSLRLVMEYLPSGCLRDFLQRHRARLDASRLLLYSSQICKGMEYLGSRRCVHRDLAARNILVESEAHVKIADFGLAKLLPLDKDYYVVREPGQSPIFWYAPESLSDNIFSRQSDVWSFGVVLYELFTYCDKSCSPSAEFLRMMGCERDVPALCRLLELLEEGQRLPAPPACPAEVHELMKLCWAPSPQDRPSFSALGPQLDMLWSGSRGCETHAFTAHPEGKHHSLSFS
# Format: binding
# RUN CONDITIONS: JAK3(JH1domain-catalytic); 10 μM
PROPERTY NAME: Percent control (%)
Return type: number; implicit unit %.

These recorded examples may help you get a feel for the data.
# COMPOUND, Percent control [%]
measured = [
    ("C#Cc1cccc(Nc2c3cc(OCCOC)c(OCCOC)cc3nc[n+]2[Pt@SP2-2]([NH3+])([NH3+])[Cl])c1 [2a, cisplatin-erlotinib]", 28),
    ("Cc1ccc(NC(=O)c2ccc(CN3CCN(C)CC3)cc2)cc1Nc1nccc(-c2cccnc2)n1 [Imatinib, reference compound]", 100),
    ("Cc1ccc(NC(=O)c2ccc(CN3CCN(C)CC3)cc2)cc1Nc1nccc(-c2cccnc2)[n+]1[Pt-2]1([Cl])[NH2+]C2CCCCC2[NH2+]1 (stereo not shown) [1b, oxaliplatin-imatinib]", 55),
]

Consider the record given below.
Notebook: COc1cc2c(Nc3ccc(Br)cc3F)[n+]([Pt-2]3([Cl])[NH2+]C4CCCCC4[NH2+]3)cnc2cc1OCC1CCN(C)CC1 (stereo not shown) [3b, oxaliplatin-vandetanib] , Percent control read as 100

Data credit: paper PMC4858680
